Data provenance is ChEMBL document CHEMBL3988442.

Molecular target: Sialic acid-binding Ig-like lectin 9 (Homo sapiens) (UniProt Q9Y336)
Sequence (Q9Y336 whole entry): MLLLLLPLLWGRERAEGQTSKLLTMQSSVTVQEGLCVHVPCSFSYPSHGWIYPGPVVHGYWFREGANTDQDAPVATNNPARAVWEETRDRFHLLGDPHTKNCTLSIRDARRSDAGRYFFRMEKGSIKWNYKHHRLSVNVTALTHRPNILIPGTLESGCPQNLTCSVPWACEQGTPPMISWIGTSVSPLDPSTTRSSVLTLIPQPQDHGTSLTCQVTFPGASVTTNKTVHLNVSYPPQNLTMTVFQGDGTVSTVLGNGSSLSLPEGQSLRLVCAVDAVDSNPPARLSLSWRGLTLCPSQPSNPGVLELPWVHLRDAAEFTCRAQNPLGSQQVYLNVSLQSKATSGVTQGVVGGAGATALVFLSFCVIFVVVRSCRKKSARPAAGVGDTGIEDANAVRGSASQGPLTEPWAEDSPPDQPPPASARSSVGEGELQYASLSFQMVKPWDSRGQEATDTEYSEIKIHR
Test: Hs-Siglec9 ALPHAscreen SOP 20170721
Parameters: scale not given: direction of the effect not stated beside the values
Conditions: 10 µM
Give measured Percent Effect for each item. Keep answers brief.
Numbers only, in %.

Solved cases (4 shown):
COMPOUND	Percent Effect [%]
CC(C)C1CN(C(=O)c2nccnc2N)CCS1 (stereo not given)	11
Fc1ccc(CNCC2OCCc3cn(CC4CC4)nc32)cc1 (stereo not given)	6.39
CCn1nc(C)c(CNC(=O)c2cn(CC3CCCO3)nn2)c1C (stereo not given)	7.76
CC(C)(C)c1nc(CN2CCCC(Cn3cncn3)C2)cs1 (stereo not given)	-3.27

# compound Cc1ccc(CN2CCC(F)(F)C3(CCN(c4cnccn4)C3)C2)o1 (stereo not given) ; its Percent Effect = 1.13

----------
Species on record: Homo sapiens
Experiment: To identify inhibition of the IFN signalling (Jak-Stat) pathway via expression of an eGFP reporter gene under the control of an IFN-stimulated response element (ISRE) containing MxA promoter.
Assay type: functional
Set-up: scale not given: direction of the effect not stated beside the values
Conditions: 30 µM
READOUT_KIND: Percent Effect (%)
Give bare numbers, in %.

MOLECULE	Percent Effect / %
COC(=O)C(c1cc(F)ccc1F)N(C)C(=O)c1cccnc1O (centres undefined)	-7.9
COCCN1CCN(CCCS(C)(=O)=O)CC1C (centres undefined)	4.15
COCCOc1ccc(NC(=O)N2CCCC2c2ccncc2)cn1 (centres undefined)	11.5
CC1CCN(C(CNC(=O)CCn2cccn2)c2cccs2)CC1 (centres undefined)	4.2
Cn1cc(Br)c(=O)c(NS(=O)(=O)c2ccc(F)cc2)c1	2.64
CCN1CCn2c(C)cnc2C12CCN(C(=O)c1ccc(Cl)cc1)CC2	4.01

Hey, quick one: what's Percent Effect for each of these?
1. Cc1cc(N2CCN(Cc3ccc(-c4cc[nH]n4)o3)CC2)cc(C)n1
2. CC(C)NC(=O)c1nnn(-c2cccc(C(F)(F)F)c2)c1C1CC1
3. c1cnn(CCNCc2nnc(C3CC3)o2)c1
4. CCCS(=O)(=O)NCc1cccnc1OCC
5. COc1ccc(C(=O)N(C)Cc2cccc(C#N)c2)c(OC)c1OC
6. CCN(CC)Cc1ccc(C(=O)N2CCN(CC(C)O)CC2)cc1 (centres undefined)
7. Cc1ccc(C(=O)N2CCN(C(=O)Nc3ccccn3)CC2)o1
8. CN(C)CCCNC(=O)CNC(=O)N1CCc2c([nH]c3ccccc23)C1

# output
9.15
11.4
11.1
13.3
1.4
-2.61
11
13.6

----------
Kindly state Percent Effect for each of the entries shown.
Molecular target: Proteasome subunit beta (Trypanosoma cruzi) (UniProt O96673)
Sequence (O96673 as listed by the source): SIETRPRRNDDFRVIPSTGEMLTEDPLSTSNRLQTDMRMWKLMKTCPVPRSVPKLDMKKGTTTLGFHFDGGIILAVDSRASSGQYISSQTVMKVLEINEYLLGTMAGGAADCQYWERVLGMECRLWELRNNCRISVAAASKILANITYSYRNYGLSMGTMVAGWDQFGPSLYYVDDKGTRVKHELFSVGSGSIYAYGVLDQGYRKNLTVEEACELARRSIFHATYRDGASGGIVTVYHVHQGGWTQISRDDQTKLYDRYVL
Assay: Trypanosoma cruzi proteasome chymotrypsin-like activity (TcProtChymo) assay. Note: in the data most compounds retested in dose-response had high values.
Type: functional
Parameters: scale not given: direction of the effect not stated beside the values
Conditions: 9.37 µM
Give bare numbers, in %.

Recorded results for 2 compounds are shown here.
COMPOUND	Percent Effect (%)
CC(C)n1ncc2c1NC(=O)CC21C(=O)Nc2c(Cl)cc(Cl)cc21 (stereo not drawn)	1.29
Cc1cccc(C(=O)N2CCN(S(C)(=O)=O)[C@@H](C)C2)c1C	0.71

Read the next record carefully.
# compound Cc1c(C(=O)N2CCCC2c2cnn(C)c2)nnn1-c1ccccc1 (stereo not drawn) ; its Percent Effect = 9.87

----------
Target: Sialic acid-binding Ig-like lectin 9 (Homo sapiens)
Assay: Hs-Siglec9 ALPHAscreen SOP 20170721
Set-up: scale not given: direction of the effect not stated beside the values
Details: 10 µM
READOUT_KIND: Percent Effect (%)
Give bare numbers, in %.

Examples with answers:
COMPOUND	ASSAY_TARGET	Percent Effect [%]
CCOCCN1CCN(Cc2nc(C3CC3)no2)CC1CC (configuration not stated)	Sialic acid-binding Ig-like lectin 9 (Homo sapiens)	25.2
N#Cc1ncn(CCC(=O)Nc2c(Cl)cccc2Cl)n1	Sialic acid-binding Ig-like lectin 9 (Homo sapiens)	6.16
CS(=O)(=O)c1ccc(OCCNCc2ccc(F)cc2F)cc1	Sialic acid-binding Ig-like lectin 9 (Homo sapiens)	2.33
CCCc1n[nH]c(C2CN(Cc3nnc(C4CC4)o3)CCO2)n1 (configuration not stated)	Sialic acid-binding Ig-like lectin 9 (Homo sapiens)	2.18
O=C(Cc1csc(-c2ccco2)n1)N1CCN(c2cnccn2)CC1	Sialic acid-binding Ig-like lectin 9 (Homo sapiens)	4.73
CCc1nc(CN(C(C)=O)C2CCN(CCc3cnn(C)c3)C2)no1 (configuration not stated)	Sialic acid-binding Ig-like lectin 9 (Homo sapiens)	-9.07

Below is a list of compounds. For each, state its recorded Percent Effect.
1. O=C(c1ccc(F)cc1)N1C[C@@H]2OCCN(c3ncccn3)[C@@H]2C1
2. O=c1cc(CN2CCCC(CCc3c(F)cccc3F)C2)[nH]c(=O)[nH]1 (configuration not stated)
3. CCN(CC)C(=O)c1ccc(-c2ccsc2)nc1C
4. Clc1ccccc1C1(c2ccnc(-c3ncccn3)n2)CCNCC1
5. COCC1CCCN(C(=O)c2cc(Cn3ccc4ccccc43)[nH]n2)C1 (configuration not stated)

# output
1. 9.86
2. 1.61
3. -7.86
4. 8.56
5. 11.2

The measured Percent Effect that CCN1CC2(CC1=O)CN(Cc1cnn(C)c1)CCN(C(C)=O)C2 (configuration not stated) showed for Sialic acid-binding Ig-like lectin 9 (Homo sapiens) is -2.12

----------
Molecular target: Protein translocase subunit SecA (Escherichia coli (strain K12)) (UniProt P10408)
Sequence (P10408 whole entry): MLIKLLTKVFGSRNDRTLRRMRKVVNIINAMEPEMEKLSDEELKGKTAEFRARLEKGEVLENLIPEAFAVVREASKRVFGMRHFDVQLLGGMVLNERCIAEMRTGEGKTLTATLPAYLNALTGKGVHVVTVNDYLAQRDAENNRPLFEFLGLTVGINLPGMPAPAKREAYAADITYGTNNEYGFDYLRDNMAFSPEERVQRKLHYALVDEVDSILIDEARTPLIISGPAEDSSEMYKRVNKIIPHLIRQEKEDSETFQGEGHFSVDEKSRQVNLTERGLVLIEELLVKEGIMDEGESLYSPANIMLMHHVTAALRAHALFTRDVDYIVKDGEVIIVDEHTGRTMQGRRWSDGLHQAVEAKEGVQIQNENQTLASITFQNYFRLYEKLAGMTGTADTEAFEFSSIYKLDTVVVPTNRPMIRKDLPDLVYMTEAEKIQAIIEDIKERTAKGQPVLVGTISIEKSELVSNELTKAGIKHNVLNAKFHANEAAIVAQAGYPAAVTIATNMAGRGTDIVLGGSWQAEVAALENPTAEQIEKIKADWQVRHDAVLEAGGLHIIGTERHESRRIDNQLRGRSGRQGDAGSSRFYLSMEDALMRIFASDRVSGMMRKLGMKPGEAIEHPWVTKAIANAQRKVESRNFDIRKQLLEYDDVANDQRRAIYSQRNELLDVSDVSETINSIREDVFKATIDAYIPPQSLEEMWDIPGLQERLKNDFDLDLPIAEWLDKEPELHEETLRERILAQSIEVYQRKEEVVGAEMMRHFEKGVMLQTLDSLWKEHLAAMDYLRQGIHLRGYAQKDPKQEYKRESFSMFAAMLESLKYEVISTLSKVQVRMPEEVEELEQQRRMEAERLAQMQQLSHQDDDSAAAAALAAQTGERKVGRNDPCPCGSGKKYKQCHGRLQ
Experiment: Assay to Identify E. coli SecA ATPase Inhibitors
Format: functional
Set-up: scale not given: direction of the effect not stated beside the values
Conditions: 30 µM
Measured potencies and affinities stand elsewhere.
READOUT_KIND: Percent Effect (%)
Give bare numbers, in %.

Reference set (10 entries):
COMPOUND	READOUT_KIND	MEASURE_UNIT	DATA_VALUE
CC(NC(=O)NCC1(c2ccc(F)cc2)CCC1)c1nncn1C (stereo not given)	Percent Effect	%	-5.85
O=C1CCC2(CCN(Cc3cc(F)ccc3Cl)CC2)CN1C1CCCC1	Percent Effect	%	0.0694
Cc1nc(CN2C(=O)CC[C@H]3[C@@H]2CCN3C(=O)c2ccsc2)cs1	Percent Effect	%	2.29
COCc1nc(N(C)C)ncc1C(=O)Nc1ccn(C)n1	Percent Effect	%	-6.73
Cc1cc(CNC(=O)N2CCN(c3ccccc3)CC2)no1	Percent Effect	%	-3.75
Cc1nnc2n1CCN(Cc1csc(CC(=O)N(C)C)n1)C2	Percent Effect	%	-4.68
CSCCC(=O)N1CCCC1c1ccsc1 (stereo not given)	Percent Effect	%	0.213
Cc1nn(C)c(C)c1C1CCCN1C(=O)c1ccc(NC2CC2)nc1 (stereo not given)	Percent Effect	%	-1.33
Cc1nnc(NCc2cccnc2N(C)C)c(C#N)c1C	Percent Effect	%	-0.868
Cc1nc(COc2cccc(C#N)c2)no1	Percent Effect	%	-1.52

For each of the compounds below, state Percent Effect.
1. Cc1cc(-c2cnc(N3CCNC(=O)C3)nc2-c2ccc(C)o2)on1
2. O=C(NCC1CCOCC1)[C@H]1C[C@@H]2CCN(Cc3ccncc3)C[C@@H]2O1
3. CN(c1ccncn1)C1CC2(CCN(C(=O)CCc3cccs3)C2)C1 (stereo not given)
4. COCc1nc2cc(NCc3ccc(C)o3)ccc2o1
5. COC(=O)c1cccn1C1CCN(C(=O)c2cn[nH]c2C)CC1
6. CS(=O)(=O)N1CCc2c(cccc2NC(=O)CC(F)(F)F)C1

# output
1: -8.2; 2: -1.48; 3: -3.27; 4: -4.96; 5: -3.48; 6: -3.17

Hey, quick one: what's Percent Effect for each of these?
1. CCC(=O)N1CCc2[nH]cnc2C12CCN(C(=O)CCS(C)(=O)=O)CC2
2. CC(CN1CCOCC1)NC(=O)N(C)Cc1ccc(Cl)s1 (stereo not given)
3. O=C(NCc1cccnc1-n1cccn1)C1CC(=O)N(CC2CC2)C1 (stereo not given)
4. CCN1C[C@@H]2[C@@H](OC)CCN(S(=O)(=O)c3ccccc3)[C@@H]2C1
5. CCN(CCn1cccn1)Cc1nc(-c2cccs2)oc1C
6. CNC(=O)C1Cn2ccnc2C2(CCN(CCF)CC2)O1 (stereo not given)
7. CN(C)C[C@H]1OC[C@@H]2CCN(C(=O)c3ccco3)C[C@@H]21

# output
1: 1.36; 2: 0.481; 3: 1.42; 4: -1.54; 5: -3.57; 6: -1.42; 7: -8.17

Parameter requested: Percent Effect. Apply to each item below.
1. Cc1n[nH]c(C)c1C1CCCN1C(=O)CNC(=O)C(C)(C)C (stereo not given)
2. O=C(CCc1cc2n(n1)CCCN(C(=O)c1cccnc1)C2)NC1CC1
3. CC(CNC(=O)c1ccc(F)cc1Cl)N1CCCC1 (stereo not given)
4. CC(NC(=O)N(C)Cc1ccc(Cl)s1)c1ccccn1 (stereo not given)
5. CC(C)(C)c1cnc(CN2CCC(c3ccnn3CCO)CC2)o1
6. Cc1cccc(C(=O)N2CCN(S(C)(=O)=O)[C@@H](C)C2)c1C

# output
1. -0.905
2. -2.13
3. -1.76
4. -2.39
5. -2.61
6. -5.53
